- target_system: PPARα (Homo sapiens)
- assay: PPARα-GAL4 chimeric receptor transactivation in CHO-K1 cells
- Type: cell-based
- settings: PPAR-GAL4 chimeric receptors, transiently transfected CHO-K1 cells; ia = inactive at 10 μM; read-out: Transactivation activity EC50 PPARα
pEC50: −log10 of the molar value.
Each entry below lists one item and its recorded pEC50 value.

{"compound": "CCCCC(Cc1ccc(OC)c(C(=O)NCc2ccc(C(F)(F)F)cc2)c1)C(=O)O (stereo not drawn) [Compound 14]", "pEC50": 6.00}
{"compound": "COc1ccc(CCC(=O)O)cc1C(=O)NCc1ccc(C(F)(F)F)cc1 [Compound 9]", "pEC50": 5.89}
{"compound": "CCOC(Cc1ccc(OC)c(C(=O)NCc2ccc(C(F)(F)F)cc2)c1)C(=O)O (stereo not drawn) [Compound 17]", "pEC50": 5.80}

====

- target_system: PPARδ (Homo sapiens)
- Sequence (Q03181 171-441 limits assumed): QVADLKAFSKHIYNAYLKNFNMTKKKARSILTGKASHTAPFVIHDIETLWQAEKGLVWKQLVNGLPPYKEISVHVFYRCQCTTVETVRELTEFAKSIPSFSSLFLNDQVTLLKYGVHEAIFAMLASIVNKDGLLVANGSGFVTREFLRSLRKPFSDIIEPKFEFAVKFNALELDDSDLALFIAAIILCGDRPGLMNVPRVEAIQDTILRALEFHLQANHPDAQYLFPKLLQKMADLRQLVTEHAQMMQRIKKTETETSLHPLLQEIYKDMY
- assay: cell-based
- Assay type: cell-based
- settings: PPAR-GAL4 chimeric receptors, transiently transfected HEK-293 cells; ia = inactive at 10 μM; read-out: Transactivation activity EC50 PPARδ

{"compound": "CCCCOc1ccc(CC(CC)C(=O)O)cc1CNC(=O)c1ccc(C(F)(F)F)cc1 (stereo not shown)", "EC50": "4.8 nM"}
{"compound": "CCC(Cc1ccc(OCc2ccccc2)c(CNC(=O)c2ccc(C(F)(F)F)cc2)c1)C(=O)O (stereo not shown)", "EC50": "110 nM"}
{"compound": "CCCCOc1ccc(C[C@H](CC)C(=O)O)cc1CNC(=O)c1ccc(C(F)(F)F)cc1F", "EC50": "0.91 nM"}
{"compound": "CCCOc1ccc(CC(CC)C(=O)O)cc1CNC(=O)c1ccc(C(F)(F)F)cc1 (stereo not shown)", "EC50": "6.8 nM"}
{"compound": "CCOc1ccc(CC(CC)C(=O)O)cc1CNC(=O)c1ccc(C(F)(F)F)cc1 (stereo not shown)", "EC50": "15 nM"}
{"compound": "CCC(Cc1ccc(OC)c(CNC(=O)c2ccc(C(F)(F)F)cc2)c1)C(=O)O (racemic) [Compound 33]", "EC50": "200 nM"}
{"compound": "CC[C@@H](Cc1ccc(OC)c(CNC(=O)c2ccc(C(F)(F)F)cc2F)c1)C(=O)O", "EC50": "12 nM"}
{"compound": "CCC(Cc1ccc(OC)c(CNC(=O)c2ccc(F)c(C(F)(F)F)c2)c1)C(=O)O (stereo not shown)", "EC50": "2000 nM"}
{"compound": "COc1ccc(CCC(=O)O)cc1CNC(=O)c1ccc(C(F)(F)F)cc1", "EC50": "3000 nM"}
{"compound": "CCC(Cc1ccc(OC)c(CNC(=O)c2ccc(C(F)(F)F)cc2F)c1)C(=O)O (racemic) [Compound 38]", "EC50": "24 nM"}
{"compound": "CCCCOc1ccc(CC(CCC)C(=O)O)cc1CNC(=O)c1ccc(C(F)(F)F)cc1F (stereo not shown)", "EC50": "5.1 nM"}
{"compound": "CCC(Cc1ccc(OC)c(CNC(=O)c2ccc(C(F)(F)F)c(F)c2)c1)C(=O)O (stereo not shown)", "EC50": "51 nM"}
{"compound": "CCCCC(Cc1ccc(OC)c(CNC(=O)c2ccc(C(F)(F)F)cc2)c1)C(=O)O (stereo not shown)", "EC50": "700 nM"}
{"compound": "CCCCC(Cc1ccc(OC)c(CNC(=O)c2ccc(C(F)(F)F)cc2F)c1)C(=O)O (stereo not shown)", "EC50": "220 nM"}
{"compound": "CCC(Cc1ccc(OC)c(CNC(=O)c2ccc(C(F)(F)F)cc2F)c1)C(=O)O (racemic) [Compound 55]", "EC50": "21 nM"}
{"compound": "CCC(Cc1ccc(OC)c(CNC(=O)c2ccc(C(F)(F)F)cc2)c1)C(=O)O (racemic) [Compound 49]", "EC50": "170 nM"}

====

- target_system: UniProtKB Q07869
- assay: PPARα-GAL4 chimeric receptor transactivation in CHO-K1 cells
- Type: cell-based
- settings: human PPARα; CHO-K1 cells (footnote of Table 1); read-out: Transactivation activity EC50 PPARα Human
pEC50: −log10 of the molar value.

{"compound": "CC[C@@H](Cc1ccc(OC)c(C(=O)NCc2ccc(C(F)(F)F)cc2)c1)C(=O)O [KCL]", "pEC50": 7.22}

====

- target_system: PPARα (Homo sapiens, UniProt Q07869)
- Sequence (Q07869 200-468 limits assumed): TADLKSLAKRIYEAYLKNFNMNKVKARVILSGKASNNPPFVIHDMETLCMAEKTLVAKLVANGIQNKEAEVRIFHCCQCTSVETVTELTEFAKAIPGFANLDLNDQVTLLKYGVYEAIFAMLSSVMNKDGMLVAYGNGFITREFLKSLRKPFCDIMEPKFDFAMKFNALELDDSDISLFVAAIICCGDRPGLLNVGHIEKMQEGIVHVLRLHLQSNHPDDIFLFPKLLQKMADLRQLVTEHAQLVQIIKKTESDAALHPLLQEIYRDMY
- assay: PPARα-GAL4 chimeric receptor transactivation in HEK-293 cells
- Assay type: cell-based
- settings: PPAR-GAL4 chimeric receptors, transiently transfected HEK-293 cells; ia = inactive at 10 μM
Each entry below lists one item and its recorded EC50 value.
parameter_measured: EC50 (µM)

{"molecule": "CCC(Cc1ccc(OC)c(CNC(=O)c2ccc(C(F)(F)F)cc2F)c1)C(=O)O (racemic) [Compound 55]", "units_symbol": "µM", "value_observed": 0.0082}
{"molecule": "CCC(Cc1ccc(OC)c(CNC(=O)c2ccc(F)c(C(F)(F)F)c2)c1)C(=O)O (centres unmarked)", "units_symbol": "µM", "value_observed": 0.25}
{"molecule": "CCCC(Cc1ccc(OC)c(CNC(=O)c2ccc(C(F)(F)F)cc2)c1)C(=O)O (centres unmarked)", "units_symbol": "µM", "value_observed": 0.07}
{"molecule": "CCC(Cc1ccc(OC)c(CNC(=O)c2ccc(C(F)(F)F)cc2)c1)C(=O)O (racemic) [Compound 33]", "units_symbol": "µM", "value_observed": 0.019}
{"molecule": "CC[C@@H](Cc1ccc(OC)c(CNC(=O)c2ccc(C(F)(F)F)cc2F)c1)C(=O)O", "units_symbol": "µM", "value_observed": 0.01}
{"molecule": "CCCOc1ccc(CC(CC)C(=O)O)cc1CNC(=O)c1ccc(C(F)(F)F)cc1F (centres unmarked)", "units_symbol": "µM", "value_observed": 0.041}
{"molecule": "CC[C@@H](Cc1ccc(OC)c(CNC(=O)c2ccc(C(F)(F)F)c(F)c2)c1)C(=O)O", "units_symbol": "µM", "value_observed": 0.012}
{"molecule": "CCOc1ccc(CC(CC)C(=O)O)cc1CNC(=O)c1ccc(C(F)(F)F)cc1 (centres unmarked)", "units_symbol": "µM", "value_observed": 0.012}

====

- target_system: PPARγ (Homo sapiens, UniProt P37231)
- Sequence (P37231 232-505 limits assumed): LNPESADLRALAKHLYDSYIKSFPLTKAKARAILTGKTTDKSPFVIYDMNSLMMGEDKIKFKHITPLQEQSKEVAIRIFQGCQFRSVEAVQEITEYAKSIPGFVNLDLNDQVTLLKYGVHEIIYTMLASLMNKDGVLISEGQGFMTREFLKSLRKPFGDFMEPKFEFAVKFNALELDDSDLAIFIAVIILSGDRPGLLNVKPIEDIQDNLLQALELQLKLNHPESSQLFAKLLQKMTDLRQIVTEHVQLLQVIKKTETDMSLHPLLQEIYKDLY
- assay: cell-based
- Type: cell-based
- settings: PPAR-GAL4 chimeric receptors, transiently transfected CHO-K1 cells; ia = inactive at 10 μM; read-out: Transactivation activity EC50 PPARγ
pEC50: −log10 of the molar value.

{"compound": "CCC(Cc1ccc(OC)c(CNC(=O)c2ccc(C(F)(F)F)cc2)c1)C(=O)O (racemic)", "pEC50": 5.00}
{"compound": "CCCCC(Cc1ccc(OC)c(C(=O)NCc2ccc(C(F)(F)F)cc2)c1)C(=O)O (stereo not shown)", "pEC50": 5.60}
{"compound": "CCC(Cc1ccc(OC)c(C(=O)CCc2ccc(C(F)(F)F)cc2)c1)C(=O)O (stereo not shown)", "pEC50": 5.13}
{"compound": "CCOC(Cc1ccc(OC)c(C(=O)NCc2ccc(C(F)(F)F)cc2)c1)C(=O)O (stereo not shown)", "pEC50": 5.55}

====

- target_system: PPARα (Homo sapiens)
- assay: PPARα-GAL4 chimeric receptor transactivation in HEK-293 cells
- Format: cell-based
- settings: PPAR-GAL4 chimeric receptors, transiently transfected HEK-293 cells; ia = inactive at 10 μM
parameter_measured: EC50 (µM)

{"compound": "COc1ccc(CC(C)C(=O)O)cc1CNC(=O)c1ccc(C(F)(F)F)cc1 (stereo not drawn)", "target_system": "PPARα (Homo sapiens)", "value_observed": 0.019}
{"compound": "CCCCOc1ccc(C[C@H](CC)C(=O)O)cc1CNC(=O)c1ccc(C(F)(F)F)cc1F", "target_system": "PPARα (Homo sapiens)", "value_observed": 0.25}
{"compound": "CCCOc1ccc(CC(CC)C(=O)O)cc1CNC(=O)c1ccc(C(F)(F)F)cc1 (stereo not drawn)", "target_system": "PPARα (Homo sapiens)", "value_observed": 0.077}
{"compound": "CCCCCCOc1ccc(CC(CC)C(=O)O)cc1CNC(=O)c1ccc(C(F)(F)F)cc1 (stereo not drawn)", "target_system": "PPARα (Homo sapiens)", "value_observed": 1.2}
{"compound": "CCCCOc1ccc(CC(CCC)C(=O)O)cc1CNC(=O)c1ccc(C(F)(F)F)cc1F (stereo not drawn)", "target_system": "PPARα (Homo sapiens)", "value_observed": 0.82}
{"compound": "CCCCC(Cc1ccc(OC)c(CNC(=O)c2ccc(C(F)(F)F)cc2F)c1)C(=O)O (stereo not drawn)", "target_system": "PPARα (Homo sapiens)", "value_observed": 0.14}

Reference for the values: paper PMC2430034
